These data points were gathered from patent US11470846B2.

Recorded measurements of Control of weed species, ALOMY (damage score), one per entry
- Tested on: Alopecurus myosuroides (ALOMY)
- Measurement Notes: Post-emergence herbicidal activity
- Format: in vivo
- Test Settings: post-emergence application, 1000 g/Ha, evaluated after 13 days, scale 0-5
Measure: Control of weed species, ALOMY (damage score)

[
  {
    "Smiles Text": "Cc1nc(-c2cncc(O)c2)sc1N(C)C(=O)OC(C)(C)C",
    "Result": 0
  },
  {
    "Smiles Text": "Cc1nc(-c2cncc(N)c2)sc1N(C)C(=O)OC(C)(C)C",
    "Result": 1
  },
  {
    "Smiles Text": "Cc1nc(-c2cncnc2)sc1N(C)C(=O)OC(C)(C)C",
    "Result": 1
  },
  {
    "Smiles Text": "CN(C(=O)OC(C)(C)C)c1sc(-c2cncc(F)c2)nc1I",
    "Result": 1
  },
  {
    "Smiles Text": "Cc1nc(-c2cc(F)c[n+]([O-])c2)sc1N(C)C(=O)OC(C)(C)C",
    "Result": 1
  }
]
